B1: glmS ribozyme (parent)
chain: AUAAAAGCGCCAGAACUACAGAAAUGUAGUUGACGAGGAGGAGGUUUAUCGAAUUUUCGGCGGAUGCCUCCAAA

Variants of: B1
Test: self-cleavage kobs at 640 uM GlcN6P; higher = faster cleavage; RNA array
Settings: with glucosamine-6-phosphate
Variants at the floor of the assay were thinned out.
So I've got a bunch of variants here, and I need their self-cleavage kobs at 640 uM GlcN6P values.
Give bare numbers, in s⁻¹.

State the recorded self-cleavage kobs at 640 uM GlcN6P for every item in the following list.
1. C16G U54G G60A C70A
2. A39U U47C
3. U31C C71G

Out:
[0.000647, 0.00198, "9.1e-05"]

State the recorded self-cleavage kobs at 640 uM GlcN6P for every item in the following list.
1. U30A C67A
2. C16G U45C U54A C70U
3. U31C U45A
4. A39U G66C
5. U31A G66A
6. U47C U55A
7. G41A U54G
8. A14U U65A

Out:
1. 0.000231
2. 6.18e-05
3. 0.00258
4. 0.00112
5. 0.00114
6. 0.00113
7. 0.00057
8. 0.000203

The origin of these recorded values is the supplement of paper PMC7125110.
